# Measurement target: IKZF2 (Helios) (Homo sapiens, UniProt Q96SW2+Q9UKS7)
# Construct: Leu-Asp junction (codons ctcgac before the linker); mScarlet (behind P2A) (C, cleaved yes); expressed in transfected cells
# Sequence (Q9UKS7 whole entry): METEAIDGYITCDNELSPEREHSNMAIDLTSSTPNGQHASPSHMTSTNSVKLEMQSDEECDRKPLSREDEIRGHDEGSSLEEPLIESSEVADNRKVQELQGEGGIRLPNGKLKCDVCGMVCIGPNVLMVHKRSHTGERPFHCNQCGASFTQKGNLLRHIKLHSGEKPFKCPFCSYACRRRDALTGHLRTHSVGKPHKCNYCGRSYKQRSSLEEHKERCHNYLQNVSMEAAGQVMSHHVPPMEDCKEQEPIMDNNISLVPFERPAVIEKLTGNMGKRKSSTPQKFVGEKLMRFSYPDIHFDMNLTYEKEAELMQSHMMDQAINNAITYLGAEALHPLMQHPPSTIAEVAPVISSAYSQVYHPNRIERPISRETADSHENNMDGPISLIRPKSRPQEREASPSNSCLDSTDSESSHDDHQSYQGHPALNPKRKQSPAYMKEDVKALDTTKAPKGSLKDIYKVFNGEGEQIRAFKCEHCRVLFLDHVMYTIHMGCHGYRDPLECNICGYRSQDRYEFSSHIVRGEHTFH
# Sequence (Q96SW2 whole entry): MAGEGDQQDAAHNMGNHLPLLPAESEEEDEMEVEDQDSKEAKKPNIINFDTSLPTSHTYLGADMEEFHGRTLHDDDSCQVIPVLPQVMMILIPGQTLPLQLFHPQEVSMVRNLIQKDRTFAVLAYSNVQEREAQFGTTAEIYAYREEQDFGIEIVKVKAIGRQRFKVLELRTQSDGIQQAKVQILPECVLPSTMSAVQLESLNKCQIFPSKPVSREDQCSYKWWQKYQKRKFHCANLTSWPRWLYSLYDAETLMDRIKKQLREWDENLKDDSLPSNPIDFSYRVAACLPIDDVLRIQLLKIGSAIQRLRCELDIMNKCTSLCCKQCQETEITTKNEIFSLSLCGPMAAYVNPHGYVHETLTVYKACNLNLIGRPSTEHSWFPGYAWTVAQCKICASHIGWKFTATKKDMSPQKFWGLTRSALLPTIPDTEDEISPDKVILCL
# Sequence (Q16531 whole entry partner): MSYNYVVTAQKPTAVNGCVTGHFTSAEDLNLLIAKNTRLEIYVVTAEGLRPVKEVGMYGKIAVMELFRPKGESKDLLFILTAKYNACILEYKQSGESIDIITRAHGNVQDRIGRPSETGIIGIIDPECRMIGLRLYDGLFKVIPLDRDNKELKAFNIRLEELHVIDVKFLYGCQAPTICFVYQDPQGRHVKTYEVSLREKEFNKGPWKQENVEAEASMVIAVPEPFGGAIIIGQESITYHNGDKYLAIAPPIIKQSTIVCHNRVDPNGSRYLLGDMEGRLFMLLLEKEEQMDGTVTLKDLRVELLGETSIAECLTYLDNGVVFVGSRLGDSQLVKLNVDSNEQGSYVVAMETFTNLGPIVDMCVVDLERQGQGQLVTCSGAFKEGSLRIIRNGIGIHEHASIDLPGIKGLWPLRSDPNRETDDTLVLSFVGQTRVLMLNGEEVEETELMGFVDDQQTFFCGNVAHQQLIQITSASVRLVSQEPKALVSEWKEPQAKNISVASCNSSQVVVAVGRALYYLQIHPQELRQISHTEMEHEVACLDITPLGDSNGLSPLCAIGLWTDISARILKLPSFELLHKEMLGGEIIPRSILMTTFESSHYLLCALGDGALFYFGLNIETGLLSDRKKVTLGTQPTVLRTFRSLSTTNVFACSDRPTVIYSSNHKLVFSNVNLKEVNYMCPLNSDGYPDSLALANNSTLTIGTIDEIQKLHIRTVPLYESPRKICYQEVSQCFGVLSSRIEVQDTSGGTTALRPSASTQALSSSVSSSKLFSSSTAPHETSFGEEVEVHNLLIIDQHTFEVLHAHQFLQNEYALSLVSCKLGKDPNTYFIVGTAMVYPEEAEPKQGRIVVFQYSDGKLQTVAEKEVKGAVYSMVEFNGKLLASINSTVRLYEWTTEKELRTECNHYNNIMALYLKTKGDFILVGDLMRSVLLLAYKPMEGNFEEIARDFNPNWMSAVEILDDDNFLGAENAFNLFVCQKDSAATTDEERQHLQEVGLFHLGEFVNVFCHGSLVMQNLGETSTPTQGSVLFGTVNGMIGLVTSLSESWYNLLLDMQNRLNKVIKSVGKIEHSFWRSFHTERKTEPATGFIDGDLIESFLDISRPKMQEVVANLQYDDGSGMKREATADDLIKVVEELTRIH
# Experimental protocol: IKZF2 reporter degradation assay (HEK 293T IKZF2-mNeonGreen reporter cell line)
# Assay type: cell-based
# Experimental conditions: HEK-293T, 24 h, 1 μM compound, HEK 293T IKZF2 reporter cells, 24 hours incubation
List of inhibition at 1 µM values.
API: value field is a number in %; no unit string.

>>> measured_number("O=C1CCC(N2Cc3cc(OC4CCCCC4N4CC(c5cnc6ccccc6n5)C4)ccc3C2=O)C(=O)N1 (centres unmarked) [Compound 21-B]")
72.5
>>> measured_number("COc1cc(C2CN(C3CCCCC3Oc3ccc4c(c3)CN(C3CCC(=O)NC3=O)C4=O)C2)ccn1 (centres unmarked) [Compound 11-B]")
78.2
>>> measured_number("O=C1CCC(N2Cc3cc(O[C@H]4CCCC[C@@H]4N4CC(C5CCOCC5)C4)ccc3C2=O)C(=O)N1 (some centres unmarked) [Compound 1-A]")
83.4
>>> measured_number("O=C1CCC(N2Cc3cc(OC4CCCCC4N4CC(c5cccc6[nH]ncc56)C4)ccc3C2=O)C(=O)N1 (centres unmarked) [Compound 71-B]")
79.3
>>> measured_number("O=C1CCC(N2Cc3cc(OC4CCCCC4N4CC(c5c[nH]c6ccccc56)C4)ccc3C2=O)C(=O)N1 (centres unmarked) [Compound 61-B]")
55.8

Continue with the next compound.
Name the reported inhibition at 1 µM value associated with the compound O=C1CCC(N2Cc3cc(OC4CCCCC4N4CC(c5ccnc6ccccc56)C4)ccc3C2=O)C(=O)N1 (centres unmarked) [Compound 66-B]
86.4

* * *

# Measurement target: IKZF2 (Helios) (Homo sapiens, UniProt Q96SW2+Q9UKS7)
# Construct: Leu-Asp junction (codons ctcgac before the linker); mScarlet (behind P2A) (C, cleaved yes); expressed in transfected cells
# Experimental protocol: IKZF2 reporter degradation assay (HEK 293T IKZF2-mNeonGreen reporter cell line)
# Type: cell-based
# Experimental conditions: @ 1 μM, HEK 293T IKZF2-mNeonGreen reporter, 24 hours incubation
Please use True whenever IKZF2 % Degradation @ 1 μM is not below 70%, and False whenever it is.

>>> answer_label("O=C1CCC(N2Cc3cc(O[C@H]4CCCC[C@@H]4N4CC(c5ccc6ccccc6n5)C4)ccc3C2=O)C(=O)N1 (single isomer, unassigned)")
"True"
>>> answer_label("O=C1CCC(N2Cc3cc(O[C@H]4CCCC[C@@H]4N4CC(c5ncc(C6CC6)cn5)C4)ccc3C2=O)C(=O)N1 (single isomer, unassigned)")
"True"
>>> answer_label("O=C1CCC(N2Cc3cc(O[C@H]4CCCC[C@@H]4N4CC(c5ncncc5Cl)C4)ccc3C2=O)C(=O)N1 (single isomer, unassigned)")
"True"
>>> answer_label("O=C1CCC(N2Cc3cc(O[C@H]4CCCC[C@@H]4N4CC(c5ccc(C(F)(F)F)nc5)C4)ccc3C2=O)C(=O)N1 (single isomer, unassigned)")
"True"
>>> answer_label("O=C1CCC(N2Cc3cc(O[C@@H]4CCCC[C@H]4N4CC(c5ccc(C(F)(F)F)cn5)C4)ccc3C2=O)C(=O)N1 (single isomer, unassigned)")
"False"
>>> answer_label("O=C1CCC(N2Cc3cc(O[C@H]4CCCC[C@H]4N4CC(c5ccncc5)C4)ccc3C2=O)C(=O)N1 (single isomer, unassigned) [Compound 136-B]")
"False"

Form field: IKZF2 % Degradation @ 1 μM at least 70%? Entry: O=C1CCC(N2Cc3cc(O[C@H]4CCCC[C@@H]4N4CC(c5ccc(C(F)(F)F)cn5)C4)ccc3C2=O)C(=O)N1 (single isomer, unassigned)
True

Form field: IKZF2 % Degradation @ 1 μM at least 70%? Entry: O=C1CCC(N2Cc3cc(O[C@H]4CCCC[C@H]4N4CC(c5ccncc5)C4)ccc3C2=O)C(=O)N1 (single isomer, unassigned) [Compound 86-B]
False

Form field: IKZF2 % Degradation @ 1 μM at least 70%? Entry: O=C1CCC(N2Cc3cc(O[C@H]4CCCC[C@@H]4N4CC(c5ccc(Cl)cn5)C4)ccc3C2=O)C(=O)N1 (single isomer, unassigned)
True
